target: insulin receptor (Homo sapiens, UniProt P06213); test: 125I insulin binding to wheat germ agglutinin purified insulin receptors (WGA.IR); parameters: host or cells: several: placental membranes, CHO.T11 cells, WGA purified receptors; conditions: LIGAND 1-site fit
Sequence (P06213 28-758 limits assumed): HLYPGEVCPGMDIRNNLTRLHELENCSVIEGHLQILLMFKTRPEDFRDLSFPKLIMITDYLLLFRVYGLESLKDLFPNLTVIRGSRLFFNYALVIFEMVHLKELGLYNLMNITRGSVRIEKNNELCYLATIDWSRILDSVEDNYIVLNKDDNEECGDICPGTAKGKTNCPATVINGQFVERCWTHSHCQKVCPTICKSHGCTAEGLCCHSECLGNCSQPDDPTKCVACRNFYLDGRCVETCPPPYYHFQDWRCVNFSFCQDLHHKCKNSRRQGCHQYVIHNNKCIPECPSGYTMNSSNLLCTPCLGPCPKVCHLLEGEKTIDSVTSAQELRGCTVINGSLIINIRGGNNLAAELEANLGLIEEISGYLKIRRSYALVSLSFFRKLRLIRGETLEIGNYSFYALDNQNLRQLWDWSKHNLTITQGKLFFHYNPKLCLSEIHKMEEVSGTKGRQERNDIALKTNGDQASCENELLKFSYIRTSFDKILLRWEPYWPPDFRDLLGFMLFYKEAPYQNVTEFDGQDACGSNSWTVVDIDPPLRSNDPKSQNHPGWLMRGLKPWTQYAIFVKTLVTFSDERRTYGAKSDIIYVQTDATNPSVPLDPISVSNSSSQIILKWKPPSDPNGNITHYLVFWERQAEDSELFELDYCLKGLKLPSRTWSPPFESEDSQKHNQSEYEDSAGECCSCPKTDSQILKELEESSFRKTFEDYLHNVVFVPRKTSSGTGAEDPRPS
Observed property: Ki (µM)

1: O=S(=O)(NS(=O)(=O)C(F)(F)F)c1cc(Cl)cc(Cl)c1OS(=O)(=O)c1cc(Cl)cc(Cl)c1O
2: CCCc1c(COc2ccc3c(=O)cc(C(=O)O)oc3c2CCC)ccc(C(C)=O)c1O
// query Between the entries labeled 1 and 2 , whose measured Ki is lower? Choose, then provide that item's label.
// result 1
(1: 83 µM, 2: 295 µM)

Sourced from patent US6933272B1
